- Tested on: Leishmania donovani
- PROCEDURE SUMMARY: Leishmania intramacrophage assay
- Type: functional, organism-based
- Design: scale not given: in the data most compounds retested in dose-response had high values
- RUN PARAMETERS: 30.3 µM; […]
About 1,000 (1.4%) of roughly 69,000 compounds showed an effect of 50% or more. The entries come from a sample that favours strong results as a whole.
PARAMETER: Percent Effect (%)
// note: answer is a bare numeric in %

Query: Which Percent Effect reading was recorded for the molecule COCc1ccc(C(=O)N2CCOCC2c2ccc(C)o2)cc1 (stereo not drawn) ?
Response: 18.1

Query: What Percent Effect value was documented for this molecule, c1cncc(C2=NOC3(CCN(Cc4c[nH]c5ccccc45)CC3)C2)c1 ?
Response: 11.25

Query: Would you kindly share the measured Percent Effect for CSc1ccc2cc(CN(C)CCO)c(=O)[nH]c2c1 ?
Response: 10.15

Query: // Percent Effect lookup, key: CN(CCCc1cnn(C)c1)C(=O)C1CCC(=O)N(C2CCCC2)C1 (stereo not drawn)
Response: 11.37

Query: For CS(=O)(=O)C1CCN(S(=O)(=O)c2ccc(F)c(F)c2)C1 (stereo not drawn) , what is its reported Percent Effect?
Response: 54.9

Query: # input molecule: CCc1cc(N2CCC(Nc3ccc(Cl)cn3)CC2)ncn1 ; wanted: its Percent Effect
Response: 39.5

Query: Value lookup for Percent Effect; key = Cn1cc(CC2CC(=O)N(Cc3ccccc3OC(F)F)C2=O)cn1 (stereo not drawn)
Response: 7.915

Query: Reported Percent Effect, molecule CC(C)CN1CCC2(CCN(Cc3nccs3)CC2)C1=O.O=C(O)C(F)(F)F : ____
Response: 12.73
